B1: HDV Ribozyme (parent)
chain: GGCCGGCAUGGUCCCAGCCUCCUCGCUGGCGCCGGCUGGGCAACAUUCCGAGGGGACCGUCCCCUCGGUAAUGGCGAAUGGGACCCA

- Variants of: B1
- assay remarks: self-cleavage, relative activity (ratio to wild type); higher = more cleavage; co-transcriptional
Please use 1.0 whenever self-cleavage is not below 0.6, and 0.0 whenever it is.

> print(dat)
                            monomer.sequence  qualitative.label
 1  GGCCGGCAUGGUCCCAACCUCCUCGCUGGCGCCGGCUGGGCAACAUUCCGAGGGGACCGACCCCUCGGUAAUGGCGAAUGGGACCCA [G17A U60A]                1.0
 2  GGCCGGCAUGGUCCCAGCCUCCUCGCUGGCGCCGCCUGGGCAACAUUCCGAGGGGACCGUCCCGUCGGUAAUGGCGAAUGGGACCCA [G35C C64G]                0.0
 3  GGCCGGCAUGGGCCCAGCCUCCUCGCUGGCGCCGGCUGGGCAACAUUCCGAGGGGACCGUCGCCUCGGUAAUGGCGAAUGGGACCCA [U12G C62G]                0.0
 4  GGCCGGCAUGGUCCCAGCCUCCUCGCUGGCGCCGGCUGGGCAACAUUCCCAGGGGAUCGUCCCCUCGGUAAUGGCGAAUGGGACCCA [G50C C57U]                1.0
 5  GUCCGGCAUGGUCCCAGCCUCCUCGCUGGCGCCGGAUGGGCAACAUUCCGAGGGGACCGUCCCCUCGGUAAUGGCGAAUGGGACCCA [G2U C36A]                0.0
 6  GGCCGUCAUGGUCCCAGCCUCCUCGCUGGCGCCGGCUGGGCGACAUUCCGAGGGGACCGUCCCCUCGGUAAUGGCGAAUGGGACCCA [G6U A42G]                0.0
 7  GGCCGGCAUGGUCCCAGCCUCCUCGGUGGCGCCGGCUGGGCAACAUUCCGAGGGGAUCGUCCCCUCGGUAAUGGCGAAUGGGACCCA [C26G C57U]                1.0
 8  GGCCGGCAUUGUCCCAGCCUCCUCGCUGGCGCUGGCUGGGCAACAUUCCGAGGGGACCGUCCCCUCGGUAAUGGCGAAUGGGACCCA [G10U C33U]                0.0
 9  GGCCGGCAUGGUCCCAGCCUCCUCGCUGGCGCCGGCUGGGCAACAUUCCGAGGGGACCGUUCCCUCGGUAAUGGCGAAUGAGACCCA [C61U G81A]                0.0
10  GGCCGGCAUGAUCCCAGCCUCCUCGCUGGCGCCGGCUGGGCAACAUUCAGAGGGGACCGUCCCCUCGGUAAUGGCGAAUGGGACCCA [G11A C49A]                0.0
11  GGCCGGCAUGGUCCCAGCCUCCUCGCUCGCGCCGGCUGGGCAACAUUCAGAGGGGACCGUCCCCUCGGUAAUGGCGAAUGGGACCCA [G28C C49A]                0.0
12  GGCCGGCAUGGUCCCAGCCUCCUCGCUGGCGCCGGCUGGGCAACAUUCCGAGGGGACCGUCCCCCCGGUAAUGGCGACUGGGACCCA [U65C A78C]                0.0
13  GGCCGGCAUGGUCCCAGCCUCCUCGCUGGCGCCGGCUGGGCAACAUUCCGUGGGGACCGUCCCCUCGGUAAUGGCGAAUGGUACCCA [A51U G82U]                0.0
14  GGCCGGCAUGGUCCCAGCCUCCUCGCUGGCGCCGGCUGGGCAAGAUUCCGAGGGGACCGUCACCUCGGUAAUGGCGAAUGGGACCCA [C44G C62A]                1.0
15  GGCCGGCAUGGUCCCAGCCUCCUCGCUGGCGCCGGCUGGGCAACAUUCCGAGGGGACCGGCCCGUCGGUAAUGGCGAAUGGGACCCA [U60G C64G]                1.0
16  GGCCGGCAUGGUCCCAGCUUCCUCGCUGGCGCCGGCUGGGCAACAUUCCGAGGGGACCGUCCCCUCGGUUAUGGCGAAUGGGACCCA [C19U A70U]                0.0
17  GGCCGGCAUGGUCCCAGCCUCCUCGCUGGCGCCGGCUGGGCAACAUUCCGAGCAGACCGUCCCCUCGGUAAUGGCGAAUGGGACCCA [G53C G54A]                1.0
18  GGCCCGCAUGGUCCCAGCCUCCUCGCUGGCGCCGGCUGGGCAACAUUCCGAGGGGACCGUCCCCUCGGUAAUGGCGAAUGUGACCCA [G5C G81U]                0.0
19  GGCCGGCAUGGUCCCAGCCUCCUCGCUGGCGGCGGCUGGGCAACAUUCCGAGGGGACCGUCCCAUCGGUAAUGGCGAAUGGGACCCA [C32G C64A]                0.0
20  GGCCGGCAUGGUCCCAGCCUCCUCGAUGGCGCCGGCUGGGCAACAUUCCAAGGGGACCGUCCCCUCGGUAAUGGCGAAUGGGACCCA [C26A G50A]                1.0
21  GGCCGGCAUGAUCCCAGCCUCCUCGCUGGCGCCGGCUGGGCAACAUUCCGAGGGGCCCGUCCCCUCGGUAAUGGCGAAUGGGACCCA [G11A A56C]                0.0
22  GGCCGGCAUGGUCCCAGCCUCCUCGCUGCCGCCGGCUGGGCAACAUUCCGAGGGGACCGUCCCCUCGGUAAUGGCGGAUGGGACCCA [G29C A77G]                0.0
23  GGCCGAAAUGGUCCCAGCCUCCUCGCUGGCGCCGGCUGGGCAACAUUCCGAGGGGACCGUCCCCUCGGUAAUGGCGAAUGGGACCCA [G6A C7A]                0.0
24  GGCCGGCAUGGUCCCAGCCUCCUCGCUGGCGCCGGCUGGGCAACAUUCCGAGGGGACCGUCUCCUCGGUAAUGGUGAAUGGGACCCA [C62U C75U]                0.0
25  GGCCGCCAUGGUCCCAGCCUCCUCGCUGGCGCCGGCUGGGCAACAUUCCGAGGGGACCGUCCCCUGGGUAAUGGCGAAUGGGACCCA [G6C C66G]                0.0
26  GGCCGGCAUGGUCCCAGCCUCCUCGCUGGCGCCGGCUGGGCAACAUUCGGAGGGGACCGUCCCCUUGGUAAUGGCGAAUGGGACCCA [C49G C66U]                1.0
27  GGCCGGCAUGGUCCCAGCCUCCUCGCUGGCGCCGGCUGGGCAACAUUCCGAGGAGACCGUCCCCUCGGUAAUGGCCAAUGGGACCCA [G54A G76C]                1.0
28  GGCCGGCAUGGUCCCAGCCUCCUCGCUGGCGCCGGCUGGGCAACAUUCCCAGGGCACCGUCCCCUCGGUAAUGGCGAAUGGGACCCA [G50C G55C]                1.0
29  GGCCGGCAUGGUCCCAGCCUCCUCUCUGGCGCCGGCUGGGCAACAUUCCGAGGGGACCGUCCCCUCGGUAAUCGCGAAUGGGACCCA [G25U G73C]                0.0
30  GGCCGGCAUGGUCCCAGCCUCCUCGCAGGCGCCGGCUGGGCAACAUUCCGAUGGGACCGUCCCCUCGGUAAUGGCGAAUGGGACCCA [U27A G52U]                1.0
31  GGCCGGCAUGGUCCCAGCCUCCUCGCUGGCGCCGGAUGGGCAACAUUCCGAGGGGACCGGCCCCUCGGUAAUGGCGAAUGGGACCCA [C36A U60G]                0.0
32  GGCUGGCAUGGUCCGAGCCUCCUCGCUGGCGCCGGCUGGGCAACAUUCCGAGGGGACCGUCCCCUCGGUAAUGGCGAAUGGGACCCA [C4U C15G]                0.0
33  GGCCGGCAUUGUCCCAGCCUCCUCGCUGGCGCCGGCUGGGCAACAUUCCGAGGGGACCGUUCCCUCGGUAAUGGCGAAUGGGACCCA [G10U C61U]                1.0
34  GGCCGGCAUGGUCCCAGCCUCCUCGCUGGCGCCGGCUGGGGAACAUUCCGAGGGGACCGUCCCCUCGGUAAUGGCGAAUGGGACUCA [C41G C85U]                1.0
35  GGCCGGCAUGGUCCCAGCCUCCUCUCUGGCGCCGGCUGGGCAACAUUCCGAGGGGACCGUCCCCUCGGUAAUGGCGAAUCGGACCCA [G25U G80C]                0.0
36  GGCCGGCAUGGUCCCAGCCUCCUCGCUGGCGCCGGGUGGGCAACAUUCCGAGGGGACCGUCACCUCGGUAAUGGCGAAUGGGACCCA [C36G C62A]                0.0
37  GGCCGGCAUGGUCCCAGCCUCCUCGCUGGCGCCGGCUGGGCAACAUUCCGAGGAGACCGUCCCCUCGGUAGUGGCGAAUGGGACCCA [G54A A71G]                1.0
38  GGCCGGCAUGGACCCAGCCUCCUCGCUGGCGCCGGCUGGGCAACAUUCCGAGGGGACCGUCCCCUCGGUAAUGGCGAAUGGGGCCCA [U12A A83G]                0.0
39  GGCAGGCAUGGUCCCAGCCUCCUCGCUGCCGCCGGCUGGGCAACAUUCCGAGGGGACCGUCCCCUCGGUAAUGGCGAAUGGGACCCA [C4A G29C]                0.0
40  GGCCGGCAUGGUCCCAGCCUCCUCGCUUGCGCCGGCUGGGCAACAUUCCGCGGGGACCGUCCCCUCGGUAAUGGCGAAUGGGACCCA [G28U A51C]                0.0
41  GGCCGGCAUGGUCCCAGCCUCCUCGCUGGCGCCGGCUCGGCAACAUUCCGAGGGGACCGUCCCCUCGGUAAUGGCGAGUGGGACCCA [G38C A78G]                0.0
42  GGCCGGCAUGGUCCCAGCCUCCUCGCUGGCGCCGGCUGGGCAACAUCCCGAGGGGACCGUCCCCUCGGCAAUGGCGAAUGGGACCCA [U47C U69C]                1.0
43  GGCAGGCAUGGUCCCAGCCUCCUCGCUGGCGCCGGCUGGGCAACAUUCCGAGGGGAGCGUCCCCUCGGUAAUGGCGAAUGGGACCCA [C4A C57G]                0.0
44  GCCCGGCAUGGUCCCAGCCUCCUCGCUGGCGCCGGCUGGGCAACUUUCCGAGGGGACCGUCCCCUCGGUAAUGGCGAAUGGGACCCA [G2C A45U]                0.0
45  GGCCGGCAUGGUCCCAGCCUCCUCGCUGGCGCCGGCUGGGCAACUUUGCGAGGGGACCGUCCCCUCGGUAAUGGCGAAUGGGACCCA [A45U C48G]                1.0
